# Test system: HOP-62 NSCLC
# Protocol notes: NCI-60 one-dose screen, 48 h
# Test conditions: 10 µM unless noted
Compounds without any hit were thinned out: in the full panel of roughly 83,000, 20% have a hit. Activity calls are given as the source filed them. The calls were made as follows: active = growth percent below 10; inactive = the rest.
Pick from active, inactive when you respond.

Reference set (5 entries):
>>> answer_label("O=C(CSc1ccc(-c2nc3ccccc3[nH]2)cn1)N1CCN(c2ccccc2F)CC1")
"inactive"
>>> answer_label("Cc1nn(-c2ccccc2)cc1/C=N/Nc1nc(Nc2ccccc2)nc(Nc2ccc(S(N)(=O)=O)cc2)n1")
"active"
>>> answer_label("C/C=C/[C@@H]1C=C[C@@H]2C[C@H](C)CC[C@H]2[C@]1(C)/C(O)=C1/C(=O)[C@H](CO)N(C)C1=O")
"inactive"
>>> answer_label("COc1c([C@@H](CC(C)C)OC(C)=O)ccc2c1C(=O)OCc1cc(C)cc(O)c1O2")
"inactive"
>>> answer_label("CC(=O)NC(C)(C)C(=O)N[C@@H](C)C(=O)NC(C)(C)C(=O)N[C@@H](C)C(=O)NC(C)(C)C(=O)N[C@@H](C)C(=O)N[C@@H](CCC(N)=O)C(=O)NC(C)(C)C(=O)N[C@H](C(=O)NC(C)(C)C(=O)NCC(=O)N[C@@H](CC(C)C)C(=O)NC(C)(C)C(=O)N1CCC[C@H]1C(=O)N[C@H](C(=O)NC(C)(C)C(=O)NC(C)(C)C(=O)N[C@@H](CCC(N)=O)C(=O)N[C@@H](CCC(N)=O)C(=O)N[C@H](CO)CC1CCCCC1)C(C)C)C(C)C")
"inactive"

Input: Recorded call for Cc1nn(-c2ccc(Cl)cc2)c(C)c1N=Nc1ccc2oc(=O)ccc2c1 ?
Output: inactive

----------
# System: UACC-62 melanoma
# Protocol notes: NCI-60 one-dose screen, 48 h
# Test conditions: 10 µM unless noted
About 83,000 compounds went through this panel and 20% of them were active in at least one assay; those are over-represented in the sample as a whole. Calls of active or inactive are those of the source. The calls were made as follows: active = growth percent below 10; inactive = the rest.
Pick from 1 for active, -1 for inactive when you respond.

>>> answer_label("NC(=O)N1N=C(c2cc3ccccc3oc2=O)CC1c1cn(-c2ccccc2)nc1-c1ccc(Cl)cc1 (stereo unspecified)")
-1

Input: Recorded call for N/C(=N\OC(=O)CSc1nc2ccccc2s1)c1ccc(Cl)cc1 ?
Output: -1

Input: Recorded call for CN1CCN(Cc2ccc(NC(=O)c3cncc(C#Cc4cnc5ccc(O[C@H]6CCOC6)nn45)c3)cc2C(F)(F)F)CC1 ?
Output: 1

Input: Recorded call for COc1cc(OC)c(S(N)(=O)=O)cc1C(=O)/C=C/c1ccccc1 ?
Output: -1

Input: Recorded call for IP(CCCSc1n(Cc2ccc3ccccc3c2)c(-c2ccccc2)c(-c2ccccc2)[n+]1Cc1ccc2ccccc2c1)(c1ccccc1)(c1ccccc1)c1ccccc1 ?
Output: -1

Input: Recorded call for O=C1Nc2cc(OC(F)(F)F)ccc2Oc2ccc(-c3ccnc(N4CC[C@H](O)C4)c3)cc21 ?
Output: -1

Input: Recorded call for Oc1ccc(CSc2nnc(-c3ccc(Oc4ccccc4)cc3)n2-c2ccccc2)c2cccnc12 ?
Output: 1

Input: Recorded call for O=[N+]([O-])c1ccc(-c2nnc(SCc3ccc(O)c4ncccc34)n2-c2ccccc2)cc1 ?
Output: -1

Input: Recorded call for COc1ccc(-c2nnc(/N=C3/C(=O)Nc4ccc(Br)cc43)o2)cc1 ?
Output: -1

Input: Recorded call for Cc1ccc(NC(=O)N[C@@H](Cc2cc(F)cc(F)c2)C(=O)NC2C(=O)N3CCC[C@H]3C(=O)N3CCCC[C@H]3C(=O)N[C@@H](C)C(=O)N3C[C@H](C)C[C@H]3C(=O)O[C@H]2C)c(F)c1 (stereo partly specified) ?
Output: -1

Input: Recorded call for C#C[C@]1(O)CC[C@H]2[C@@H]3CC=C4c5sc(-c6cccc(F)c6)nc5CC[C@]4(C)[C@H]3CC[C@@]21C ?
Output: -1

Input: Recorded call for O=C1[C@@H]2Cc3c([nH]c4ccccc34)[C@H](c3c(Cl)cccc3Cl)N2C(=O)CN1C1CCN(Cc2ccccc2)CC1 ?
Output: -1

Input: Recorded call for Cc1nn(-c2ccc(Br)cc2)c2nc(CCl)[nH]c(=O)c12 ?
Output: -1

Input: Recorded call for COc1ccc(NC(=O)[C@H](C)NC(=O)OC(C)(C)C)cc1C(=O)Nc1cccc(-c2cc(=O)c3c(OC)c(OC)c(OC)cc3o2)c1 ?
Output: 1

Input: Recorded call for CC1(COc2ccc3ncc(C#Cc4cncc(C(=O)Nc5cc(C(C)(C)C)on5)c4)n3n2)COC1 ?
Output: -1

Input: Recorded call for O=C(c1ccc(O)cc1)[C@@H]1[C@@H]2CCCN2[C@@]2(C(=O)N(C(=O)c3ccc(F)cc3)c3ccccc32)[C@H]1c1ccc(F)cc1 ?
Output: -1
